- Tested on: IMR-90 SnC (irradiated senescent IMR90 cells)
- PROCEDURE TEXT: Senolysis assay (CellTiter-Glo viability)
- Type: cell-based, human
- EXPERIMENTAL SETUP: Homo sapiens, IMR-90, light or radiation study, 72 h; X-ray irradiated senescent IMR90 cells, viability three days after compound addition
pEC50: −log10 of the molar value.

| COMPOUND | pEC50 |
| --- | --- |
| COP(=O)(CCCN1CCN(CC[C@H](CSc2ccccc2)Nc2ccc(S(=O)(=O)NC(=O)c3ccc(N4CCN(CC5=C(c6ccc(Cl)cc6)CCC(C)(C)C5)CC4)cc3)cc2S(=O)(=O)C(F)(F)F)CC1)OC [Compound 24] | > 6.00 |
| CCOP(=O)(CN1CCN(CC[C@H](CSc2ccccc2)Nc2ccc(S(=O)(=O)NC(=O)c3ccc(N4CCN(CC5=C(c6ccc(Cl)cc6)CCC(C)(C)C5)CC4)cc3)cc2S(=O)(=O)C(F)(F)F)CC1)OCOC(=O)OC(C)C (some centres unmarked) [Compound 39] | > 6.00 |
| CCOP(=O)(CCN1CCN(CC[C@H](CSc2ccccc2)Nc2ccc(S(=O)(=O)NC(=O)c3ccc(N4CCN(CC5=C(c6ccc(Cl)cc6)CCC(C)(C)C5)CC4)cc3)cc2S(=O)(=O)C(F)(F)F)CC1)OCC [Compound 9] | > 6.00 |
| CN(CC[C@H](CSc1ccccc1)Nc1ccc(S(=O)(=O)NC(=O)c2ccc(N3CCN(CC4=C(c5ccc(Cl)cc5)CCC(C)(C)C4)CC3)cc2)cc1S(=O)(=O)C(F)(F)F)CCP(=O)(O)O [Compound 12] | < 5.00 |
| CC1(C)CCC(c2ccc(Cl)cc2)=C(CN2CCN(c3ccc(C(=O)NS(=O)(=O)c4ccc(N[C@H](CCN5CCN(CCCP(=O)(O)O)CC5)CSc5ccccc5)c(S(=O)(=O)C(F)(F)F)c4)cc3)CC2)C1 [Compound 32] | < 5.00 |

---

- TGT: UniProt:Q92843
- Sequence (Q92843 1-193): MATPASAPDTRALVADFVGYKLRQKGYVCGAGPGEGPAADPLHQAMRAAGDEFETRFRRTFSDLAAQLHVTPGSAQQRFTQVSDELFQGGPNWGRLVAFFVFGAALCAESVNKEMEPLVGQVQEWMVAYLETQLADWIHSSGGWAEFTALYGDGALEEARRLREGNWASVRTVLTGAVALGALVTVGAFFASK
pKd: −log10 of the molar value.

| COMPOUND | pKd |
| --- | --- |
| CCOP(=O)(C=C1CCN(CC[C@H](CSc2ccccc2)Nc2ccc(S(=O)(=O)NC(=O)c3ccc(N4CCN(CC5=C(c6ccc(Cl)cc6)CCC(C)(C)C5)CC4)cc3)cc2S(=O)(=O)C(F)(F)F)CC1)OCC [Compound 41] | 8.00 to 9.00 |
| CCOP(=O)(O)CCCN1CCN(CC[C@H](CSc2ccccc2)Nc2ccc(S(=O)(=O)NC(=O)c3ccc(N4CCN(CC5=C(c6ccc(Cl)cc6)CCC(C)(C)C5)CC4)cc3)cc2S(=O)(=O)C(F)(F)F)CC1 [Compound 31] | 8.00 to 9.00 |
| CCOP(=O)(CCCN1CCN(CC[C@H](CSc2ccccc2)Nc2ccc(S(=O)(=O)NC(=O)c3ccc(N4CCN(CC5=C(c6ccc(Cl)cc6)CCC(C)(C)C5)CC4)cc3)cc2S(=O)(=O)C(F)(F)F)CC1)OCOC(=O)OC(C)C (some centres unmarked) [Compound 36] | 7.30 to 8.00 |
| CN(CC[C@H](CSc1ccccc1)Nc1ccc(S(=O)(=O)NC(=O)c2ccc(N3CCN(CC4=C(c5ccc(Cl)cc5)CCC(C)(C)C4)CC3)cc2)cc1S(=O)(=O)C(F)(F)F)CCP(=O)(O)O [Compound 12] | 7.30 to 8.00 |
| CCOP(=O)(CCN1CCN(CC[C@H](CSc2ccccc2)Nc2ccc(S(=O)(=O)NC(=O)c3ccc(N4CCN(CC5=C(c6ccc(Cl)cc6)CCC(C)(C)C5)CC4)cc3)cc2S(=O)(=O)C(F)(F)F)CC1)OCC [Compound 9] | 8.00 to 9.00 |
| CCOP(=O)(O)CCN(C)CC[C@H](CSc1ccccc1)Nc1ccc(S(=O)(=O)NC(=O)c2ccc(N3CCN(CC4=C(c5ccc(Cl)cc5)CCC(C)(C)C4)CC3)cc2)cc1S(=O)(=O)C(F)(F)F [Compound 11] | 8.00 to 9.00 |
| COP(=O)(CN1CCN(CC[C@H](CSc2ccccc2)Nc2ccc(S(=O)(=O)NC(=O)c3ccc(N4CCN(CC5=C(c6ccc(Cl)cc6)CCC(C)(C)C5)CC4)cc3)cc2S(=O)(=O)C(F)(F)F)CC1)OC [Compound 16] | 8.00 to 9.00 |
| CCOP(=O)(O)CCN1CCN(CC[C@H](CSc2ccccc2)Nc2ccc(S(=O)(=O)NC(=O)c3ccc(N4CCN(CC5=C(c6ccc(Cl)cc6)CCC(C)(C)C5)CC4)cc3)cc2S(=O)(=O)C(F)(F)F)CC1 [Compound 14] | 8.00 to 9.00 |
| CCOP(=O)(O)CN1CCN(CC[C@H](CSc2ccccc2)N(c2ccc(S(=O)(=O)NC(=O)c3ccc(N4CCN(CC5=C(c6ccc(Cl)cc6)CCC(C)(C)C5)CC4)cc3)cc2S(=O)(=O)C(F)(F)F)S(C)(=O)=O)CC1 [Compound 30] | < 7.30 |
| CCOP(=O)(CN1CCN(CC[C@H](CSc2ccccc2)Nc2ccc(S(=O)(=O)NC(=O)c3ccc(N4CCN(CC5=C(c6ccc(Cl)cc6)CCC(C)(C)C5)CC4)cc3)cc2S(=O)(=O)C(F)(F)F)CC1)OCOC(=O)OC(C)C (some centres unmarked) [Compound 39] | 7.30 to 8.00 |
| CCOP(=O)(CN1CCN(CC[C@H](CSc2ccccc2)N(c2ccc(S(=O)(=O)NC(=O)c3ccc(N4CCN(CC5=C(c6ccc(Cl)cc6)CCC(C)(C)C5)CC4)cc3)cc2S(=O)(=O)C(F)(F)F)S(C)(=O)=O)CC1)OCC [Compound 29] | < 7.30 |
| CCOP(=O)(CN1CCN(CC[C@H](CSc2ccccc2)Nc2ccc(S(=O)(=O)NC(=O)c3ccc(N4CCN(CC5=C(c6ccc(Cl)cc6)CCC(C)(C)C5)CC4)cc3)cc2S(=O)(=O)C(F)(F)F)CC1)OCC [Compound 6] | 8.00 to 9.00 |
| CCOP(=O)(CCN(C)CC[C@H](CSc1ccccc1)Nc1ccc(S(=O)(=O)NC(=O)c2ccc(N3CCN(CC4=C(c5ccc(Cl)cc5)CCC(C)(C)C4)CC3)cc2)cc1S(=O)(=O)C(F)(F)F)OCC [Compound 10] | 8.00 to 9.00 |
| CC1(C)CCC(c2ccc(Cl)cc2)=C(CN2CCN(c3ccc(C(=O)NS(=O)(=O)c4ccc(N[C@H](CCN5CCC(CP(=O)(OCOC(=O)C(C)(C)C)OCOC(=O)C(C)(C)C)CC5)CSc5ccccc5)c(S(=O)(=O)C(F)(F)F)c4)cc3)CC2)C1 [Compound 46] | < 7.30 |
| CCOP(=O)(CN1CCN(CC[C@H](CSc2ccccc2)Nc2ccc(S(=O)(=O)NC(=O)c3ccc(N4CCN(Cc5ccccc5-c5ccc(Cl)cc5)CC4)cc3)cc2S(=O)(=O)C(F)(F)F)CC1)OCOC(=O)OC(C)C (some centres unmarked) [Compound 56] | 8.00 to 9.00 |
| CCOP(=O)(CN1CCN(CC[C@H](CSc2ccccc2)Nc2ccc(S(=O)(=O)NC(=O)c3ccc(N4CCN(Cc5ccccc5-c5ccc(Cl)cc5)CC4)cc3)cc2S(=O)(=O)C(F)(F)F)CC1)OCC [Compound 51] | 8.00 to 9.00 |
| CCOP(=O)(CN1CCN(CC[C@H](CSc2ccccc2)Nc2ccc(S(=O)(=O)NC(=O)c3ccc(N4CCN(Cc5ccccc5-c5ccc(Cl)cc5)CC4)cc3)cc2S(=O)(=O)C(F)(F)F)CC1)OCOC(=O)C(C)(C)C (some centres unmarked) [Compound 54] | 8.00 to 9.00 |

---

Target or system BCL-xL (Homo sapiens): recorded Kd listed per item.
PARAMETER: Kd

| MOLECULE | PARAMETER | RESULT |
| --- | --- | --- |
| CC1(C)CCC(c2ccc(Cl)cc2)=C(CN2CCN(c3ccc(C(=O)NS(=O)(=O)c4ccc(N[C@H](CCN5CCN(CCCP(=O)(OCOC(=O)C(C)(C)C)OCOC(=O)C(C)(C)C)CC5)CSc5ccccc5)c(S(=O)(=O)C(F)(F)F)c4)cc3)CC2)C1 | Kd | < 1 nM |
| CCOP(=O)(CN1CCN(CC[C@H](CSc2ccccc2)Nc2ccc(S(=O)(=O)NC(=O)c3ccc(N4CCN(CC5=C(c6ccc(Cl)cc6)CCC(C)(C)C5)CC4)cc3)cc2S(=O)(=O)C(F)(F)F)CC1)OC(C)(C)C (stereo partly shown) | Kd | 10 to 50 nM |
| CCOP(=O)(CCCN1CCN(CC[C@H](CSc2ccccc2)Nc2ccc(S(=O)(=O)NC(=O)c3ccc(N4CCN(CC5=C(c6ccc(Cl)cc6)CCC(C)(C)C5)CC4)cc3)cc2S(=O)(=O)C(F)(F)F)CC1)OCOC(=O)C(C)(C)C (stereo partly shown) | Kd | < 1 nM |
| CC1(C)CCC(c2ccc(Cl)cc2)=C(CN2CCN(c3ccc(C(=O)NS(=O)(=O)c4ccc(N[C@H](CCN5CCC(CP(=O)(OCOC(=O)C(C)(C)C)OCOC(=O)C(C)(C)C)CC5)CSc5ccccc5)c(S(=O)(=O)C(F)(F)F)c4)cc3)CC2)C1 | Kd | 1 to 10 nM |
